TARGET: dopamine receptors (Rattus norvegicus, UniProt P61169)
Construct: on hypophysis sinaptosomal rat membranes; from tissue; host or cells: rat hypophysis (pituitary), synaptosomal membranes
Sequence (P61169 whole entry): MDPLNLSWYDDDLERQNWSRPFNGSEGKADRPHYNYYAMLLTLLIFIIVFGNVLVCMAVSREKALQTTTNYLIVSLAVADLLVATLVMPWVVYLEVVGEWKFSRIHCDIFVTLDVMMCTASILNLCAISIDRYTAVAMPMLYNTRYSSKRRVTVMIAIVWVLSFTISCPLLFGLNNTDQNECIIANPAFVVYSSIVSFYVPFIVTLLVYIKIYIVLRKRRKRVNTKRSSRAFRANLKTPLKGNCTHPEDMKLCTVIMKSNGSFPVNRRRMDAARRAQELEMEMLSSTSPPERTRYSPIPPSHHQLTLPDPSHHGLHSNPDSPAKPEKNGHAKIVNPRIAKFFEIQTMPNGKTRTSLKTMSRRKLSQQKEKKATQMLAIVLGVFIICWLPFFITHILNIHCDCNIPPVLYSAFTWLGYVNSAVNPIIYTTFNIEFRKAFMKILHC
PROTOCOL_DESCRIPTION: Binding of (^3H)-spiroperidole to hypophysis membranes of rat
ASSAY_SETUP: read-out: Product bound % ((^3H) spiroperidole binding to hypophysis membranes), (^3H) spiroperidole 2.10^-9 M (2 nM); test substance 10^-4 M
RESULT_TYPE: activity at 100 µM (%)
One number for each entry, in %.

CN1C[C@H](C(=O)O)C=C2c3cccc4[nH]cc(c34)C[C@H]21 [lysergic acid] : 60
CCCCCCCCCCCCCC=CC(O)C(COC1OC(CO)C(O)C(O)C1O)NC(=O)C1CC2c3cccc4[nH]cc(c34)CC2N(C)C1 (stereo not shown) [Product 16, Dihydrolysergylpsychosine amide] : 25
CN1C[C@H](C(=O)O)CC2c3cccc4[nH]cc(c34)C[C@H]21 (stereo partly shown) [dihydrolysergic acid] : 45

Now consider the entry below.
Identify measured activity at 100 µM obtained with dopamine receptors (Rattus norvegicus, UniProt P61169) for CCCCCCCCCCCCC/C=C/[C@@H](O)[C@@H](N)CO [sphingosine] . 100
